B1: Caulobacter ParB omega fusion; a variant is named by its letters at X, in order, B8GW30 (parent)
chain: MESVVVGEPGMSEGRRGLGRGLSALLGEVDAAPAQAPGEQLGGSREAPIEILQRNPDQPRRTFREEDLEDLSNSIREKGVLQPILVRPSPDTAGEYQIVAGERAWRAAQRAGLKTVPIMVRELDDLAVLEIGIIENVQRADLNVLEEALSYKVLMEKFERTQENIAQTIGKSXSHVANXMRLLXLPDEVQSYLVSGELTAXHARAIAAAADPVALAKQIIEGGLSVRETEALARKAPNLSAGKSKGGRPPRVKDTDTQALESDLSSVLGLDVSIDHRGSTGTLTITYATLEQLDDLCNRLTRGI

Variants of: B1
assay_remarks: one-hybrid fitness for binding parS DNA (scaled: cognate 1, non-cognate 0); higher = stronger binding
conditions: with parS DNA site
Whole data set: some 81,000 sequences, median “one-hybrid fitness for binding parS DNA” near -0.17, cut for the highest 2% near 0.51. What follows is part of a selection rich in the highest values, with near analogues and random picks from the rest.
Assign one-hybrid fitness for binding parS DNA to each entry below.

Recorded results for 5 variants are shown here.
INSERT INTO assay_data (changes, measured_value) VALUES
  ('RSKR', '≤ 0.2'),
  ('EQMM', '≤ 0.2'),
  ('RNEH', '≤ 0.2'),
  ('RQNA', 0.613),
  ('GTYL', '≤ 0.2');

Parameter requested: one-hybrid fitness for binding parS DNA. Apply to each item below.
1. RNEN
2. DQPL

["≤ 0.2", "≤ 0.2"]

Parameter requested: one-hybrid fitness for binding parS DNA. Apply to each item below.
1. RICY
2. QDIR
3. MRLA
4. RNEY
5. RMCN

1: 0.492; 2: ≤ 0.2; 3: ≤ 0.2; 4: ≤ 0.2; 5: 0.389

Parameter requested: one-hybrid fitness for binding parS DNA. Apply to each item below.
1. RSCQ
2. RRRA
3. RNEI
4. RWAG
5. RNEP

1: ≤ 0.2; 2: 0.501; 3: ≤ 0.2; 4: 0.72; 5: ≤ 0.2
